# Tested on: MALME-3M melanoma
# TEST_PROTOCOL: NCI tumour cell line growth inhibition, 48 h
Would you mind labelling by TGI? At or over 5 µM is criterion met, under is criterion not met.

Solved entries:
Cc1nc(/N=C(\N)NC(=O)Nc2ccccc2Cl)sc1C: criterion not met
N#CCC(=O)N/N=C1\C(=O)N(c2ccc(Cl)cc2)C(=O)C(=O)C1c1nc2ccccc2o1 (configuration not stated): criterion met
O=C1c2nn(-c3ccccc3)nc2C(c2ccccc2)N1c1ccccc1 (configuration not stated): criterion met

Lookup: TGI >= 5 µM for COC(=O)C(Cc1ccccc1I)C1=CCC2(CC1)OCCO2 (configuration not stated) ?
Found: criterion met

Lookup: And then CN(C)C=Nc1cccc2cnccc12 , what is it?
Found: criterion met

====

Kindly supply the reported TGI values for the records listed here.
# Test system: DU-145 prostate
# TEST_PROTOCOL: NCI tumour cell line growth inhibition, 48 h

Completed entries (count: 6):
O=C(Nc1nc2ccc([N+](=O)[O-])cc2[n+]([O-])n1)C(F)(F)F: > 100 µM
CCOC(=O)c1cc2c([nH]1)C(=O)CC1=C2CCN1Cc1ccccc1: 28.6 µM
COc1ccc(-n2c(C)nc3ccc(NC4OCC(O)C(O)C4O)cc3c2=O)cc1 (stereo unspecified): > 100 µM
C=C1C(=O)O[C@@H]2C[C@@H]1CC[C@@]1(C)O[C@@H]1CC[C@@]1(C)O[C@@H]1CC[C@@]2(C)O: > 100 µM
CC(=O)O[C@H]1CC[C@@]2(C)C(=CC[C@@H]3[C@@H]2CC[C@]2(C)C(=N/O)/C(=C/c4ccc([N+](=O)[O-])cc4)C[C@@H]32)C1: 31.4 µM
N#CN1CCC[C@H]1C(=O)N1CCc2c(-c3[nH]nc4ncccc34)cccc21: 11.3 µM

For each entry beneath this line, provide reported TGI.
1. Nc1nc(NNc2ccc(Cl)c(Cl)c2)cc(=O)[nH]1
2. N#CC(C#N)=C(N)/C(C#N)=C/c1cc(O)c(O)c(Br)c1
3. O=C1c2ccccc2C(=O)N1CCCCCCNOCCCN1C(=O)c2ccccc2C1=O
4. Cc1c(CCCl)c(N=[N+]=[N-])n2c(nc3ccccc32)c1C#N
5. CN1CCN(C(=S)N(C(=O)c2ccco2)c2ccccc2)CC1
6. O=C(OCC12CC3CC(CC(C3)C1)C2)c1ccc(NCc2cc(O)ccc2O)cc1
7. c1ccc(-c2nn(-c3ccccc3)[n+](-c3cccc4ccccc34)n2)cc1
8. C=C(C)[C@@H]1CCC2=C[C@@H](OC2=O)[C@@H](C(=C)C)C(=O)/C=C(/C)C(=O)C1

Found:
> 100 µM
> 100 µM
> 100 µM
6.3 µM
> 100 µM
18.7 µM
> 100 µM
> 100 µM

For each entry beneath this line, provide reported TGI.
1. COc1cc2c3c(n(CCN(C)C)c(=O)c2cc1OC)-c1cc2c(cc1C3=O)OCO2
2. Oc1cc(O)c2c(=S)cc(-c3ccc(Cl)cc3)oc2c1

Found:
> 22.5 µM
35.1 µM

====

# Tested on: MDA-MB-435
# TEST_PROTOCOL: NCI tumour cell line growth inhibition, 48 h
READOUT_LABEL: TGI

Cc1ccc(S(=O)(=O)Oc2cc(S(=O)(=O)O)cc3cc(S(=O)(=O)O)cc(N)c23)cc1: > 100 µM

For each entry beneath this line, provide reported TGI.
1. COC(=O)Nc1nc2cc3c(cc2s1)OCCO3
2. Clc1ccc(-c2nn3ncccc3c2-c2ccnc(Nc3ccccc3)n2)cc1
3. Cc1c(C(=O)O)c2cc3ccccc3cc2c(=O)n1C
4. Cc1ccc(S(=O)(=O)Oc2ccc(OS(=O)(=O)c3ccc(C)cc3)c3c2C(=O)c2ccccc2C3=O)cc1

Found:
["> 50 µM", "> 25 µM", "> 10 µM", "> 100 µM"]

====

# Tested on: EKVX NSCLC
# TEST_PROTOCOL: NCI tumour cell line growth inhibition, 48 h
READOUT_LABEL: TGI

COc1cc2c3c(n(CCN(C)C)c(=O)c2cc1OC)-c1cc2c(cc1C3=O)OCO2: > 100 µM

For each entry beneath this line, provide reported TGI.
1. COC(=O)NN=C(c1ccc(Cl)cc1)c1ccc(Cl)cc1
2. O=c1c2cc(Br)cc(Br)c2[nH]c(=S)n1-c1ccccc1

Found:
1: > 100 µM; 2: > 100 µM

====

# Tested on: SK-OV-3 ovarian
# TEST_PROTOCOL: NCI tumour cell line growth inhibition, 48 h
READOUT_LABEL: GI50

Completed entries (count: 4):
COC(=O)[C@@]1(C)CC[C@]2(C)CC[C@]3(C)C4=CC=C5C(=CC(=O)C(O)=C5C)[C@]4(C)CC[C@@]3(C)[C@@H]2C1: 0.775 µM
CN(C)CCN=Cc1c2ccccc2c(=O)n2c1oc1ccccc12: 8.44 µM
C#CCNC(=O)CC[C@]1(C)[C@H]2CC[C@@H]3[C@@H]([C@@](C)(O)CCC=C(C)C)CC[C@@]3(C)[C@]2(C)CC[C@H]1C(=C)C: > 100 µM
Cc1nc(/N=C(\N)NC(=O)Nc2ccccc2Cl)sc1C: 0.735 µM

Lookup: Would you kindly share the measured GI50 for CC1=C(/C=C/C(C)=C/C=C/C(C)=C/C(=O)Nc2ccc(O)cc2)C(C)(C)CCC1 ?
Found: 2.82 µM

====

Kindly supply the reported GI50 values for the records listed here.
# Test system: HT29 colon
# TEST_PROTOCOL: NCI tumour cell line growth inhibition, 48 h

COc1cc([C@@H]2c3cc4c(cc3[C@@H](O[C@@H]3O[C@@H]5CO[C@@H](c6cccs6)O[C@H]5[C@H](O)[C@H]3O)[C@H]3COC(=O)[C@H]23)OCO4)cc(OC)c1O: 0.614 µM

For each entry beneath this line, provide reported GI50.
1. CCCN(CCC)CCCNC(=O)c1cc2c(-c3ccc(OC)c(OC)c3)nn(C)c2s1
2. Cc1nc(/N=C(\N)NC(=O)Nc2ccccc2Cl)sc1C
3. O=C1c2ccccc2-c2c1c1ccccc1c(=O)n2CCCN1CCN(CCCn2c3c(c4ccccc4c2=O)C(=O)c2ccccc2-3)CC1

Found:
["14.5 µM", "0.333 µM", "> 100 µM"]

For each entry beneath this line, provide reported GI50.
1. COc1cc([C@@H]2c3cc4c(cc3[C@H](O)[C@H]3COC(=O)[C@H]23)OCO4)cc(OC)c1OC
2. CC[CH2][Sn]([Cl])([Cl])[CH2]CC

Found:
< 0.01 µM
14.4 µM

====

# Tested on: MALME-3M melanoma
# TEST_PROTOCOL: NCI tumour cell line growth inhibition, 48 h; in the data active = GI50 below about 0.43 µM; inactive = the rest
Your reply should match one of these outcome classes. active, inactive

Solved entries:
N#CN1CCC[C@H]1C(=O)N1CCc2c(-c3[nH]nc4ncccc34)cccc21: active
CC1OC(OC2CC(O)C3(CO)C4C(O)CC5(C)C(C6=CC(=O)OC6)CCC5(O)C4CCC3(O)C2)C(O)C(O)C1O (stereo not given): active
COc1ccc(Cc2cnc(NC(=O)c3sc4ccccc4c3Cl)s2)cc1: inactive

Lookup: # lookup: test call for COc1cc([C@@H]2c3cc4c(cc3[C@@H](O[C@@H]3O[C@@H]5CO[C@@H](c6cccs6)O[C@H]5[C@H](O)[C@H]3O)[C@H]3COC(=O)[C@H]23)OCO4)cc(OC)c1O
Found: inactive

Lookup: And then O=C(c1cccs1)c1c(C(F)(F)F)n([O-])c2ccc(F)cc2[n+]1=O , what is it?
Found: inactive

====

Kindly supply the reported TGI values for the records listed here.
# System: PC-3 prostate
# TEST_PROTOCOL: NCI tumour cell line growth inhibition, 48 h
Answers are plain numbers, in µM.

Completed entries (count: 2):
CC1(C)C[C@H]2C=C(C=O)[C@]34C[C@]3(C(=O)OC4O)[C@H]2C1 (some centres not stated): 8.74
CCc1c(Cl)nc(Cl)nc1Cl: 4.06

For each entry beneath this line, provide reported TGI.
1. Oc1c(-c2ccccc2)sc2ccccc12
2. COc1c(CNC(=O)CCl)cc2[nH]c(C)cc2c1CNC(=O)CCl

Found:
1: 69.1; 2: 33.9

====

# System: K-562 leukemia
# TEST_PROTOCOL: NCI tumour cell line growth inhibition, 48 h
Kindly supply the reported TGI values for the records listed here.

Completed entries (count: 3):
O=C(Nc1ccccc1Br)c1cccc([N+](=O)[O-])c1O: > 100 µM
Cc1nc(/N=C(\N)NC(=O)Nc2ccccc2Cl)sc1C: > 100 µM
CCOC(=O)c1c(C)n2c(=O)cc(C)c3c(OC(C)=O)c(OC(C)=O)cc1c32: > 37.9 µM

For each entry beneath this line, provide reported TGI.
1. CC(=O)OC1C(CCl)OC(N=[N+]=[N-])C(OC(C)=O)C1OC(C)=O (stereo unspecified)
2. Nc1ccccc1NC(=O)c1ccc(CN2CCC/C(=C\c3cccc(Cl)c3)C2=O)cc1
3. COc1ccc(/C=C\c2cc(OC)c(OC)c(OC)c2)cc1OC(=O)c1cccc(Cn2cc(CCOC(=O)c3cccc(Cn4nnc5c4C(=O)c4ccccc4C5=O)c3)nn2)c1

Found:
1: > 100 µM; 2: > 100 µM; 3: > 100 µM
